test.description: Antioxidant activity assessed as inhibition of peroxynitrite-induced oxidation of DHR to rhodamine-123 measured after 2 mins in presence of NaHCO3 by fluorimetric analysis
Format: physicochemical
Output T for records whose IC50 is lower than 1 µM, F for records at or above 1 µM.

Q: Strictly below 1 µM: is that where IC50 of O=c1c(O)c(-c2ccc(O)c(O)c2)oc2c(O)c(O)ccc12 sits?
A: T

Q: Find out if reported IC50 for COc1ccc(-c2oc3c(O)c(O)ccc3c(=O)c2O)cc1OC is less than 1 µM
A: F

Q: Is 1 µM strictly greater than the compound's reported IC50? compound: COc1ccc2c(=O)c(O)c(-c3ccc(O)c(O)c3)oc2c1OC
A: F

Q: Please check: IC50 for COc1ccc2c(=O)c(O)c(/C=C/c3ccc(O)c(O)c3)oc2c1OC , strictly under 1 µM or not?
A: F

Q: Confirm or reject: IC50 of O=c1c(O)c(-c2ccc(O)c(O)c2)oc2cc(O)cc(O)c12 lies strictly below 1 µM
A: F

----------
test.description: Antioxidant activity assessed as inhibition of superoxide-induced NBT reduction measured during 2 mins by spectrophotometric analysis
Assay type: physicochemical
Exercise: state measured pIC50 for each of the compounds provided.
On this scale, pIC50 is minus log10 of a concentration expressed in M (mol/L).

Q: Determine from records and report pIC50 for O=c1c(O)c(-c2ccc(O)c(O)c2)oc2cc(O)cc(O)c12
A: 4.17

Q: Provide one value: measured pIC50 of O=c1c(O)c(/C=C/c2ccc(O)c(O)c2)oc2c(O)c(O)ccc12
A: 4.52

Q: Provide pIC50 value for the following compound: COc1ccc(/C=C/c2oc3c(O)c(O)ccc3c(=O)c2O)cc1OC
A: 4.46

Q: # return recorded pIC50 for entry O=c1c(O)c(-c2ccc(O)c(O)c2)oc2c(O)c(O)ccc12
A: 4.72

Q: Provide pIC50 value for the following compound: COc1ccc(-c2oc3c(O)c(O)ccc3c(=O)c2O)cc1OC
A: 4.68

Q: Quick one: give measured pIC50 for COc1ccc2c(=O)c(O)c(-c3ccc(O)c(O)c3)oc2c1OC
A: 4.24
